EXPERIMENTAL_DETAILS: probe aLefty1 binding on compound microarray – biochemical, small-molecule microarray, 635/667 nm fluorescence, primary screen (AID 1153);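 further: score merges spot fluorescence with signal-to-noise ratio from the scanned slide images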
CONDITION_PARAMETERS: higher = more signal
fulfilled means recorded composite z-score is 0.2 or above; not fulfilled means it is below 0.2.

NC(=O)N1C(=O)C2C(C1=O)C1C=C(CCCO)C2C(c2ccc(CN3CCCC3)cc2)N1Cc1sc2ccccc2c1Cl (configuration not stated) : not fulfilled

// query Entry Cc1ccc(S[C@]2(C(=O)NC(C)C)CC(=O)N(C3CCCCC3)[C@@H]2c2ccc(CO)cc2I)cc1 : is its composite z-score no less than 0.2?
// result not fulfilled

// query Entry CC(C)[Si](C#CCCc1ccccc1)(O[C@H](c1ccccc1)c1cn(Cc2ccccc2)nn1)C(C)C : is its composite z-score no less than 0.2?
// result not fulfilled

// query Entry C[N+](C)(C)CCCC[C@@H]1NC(=O)[C@H]2C[C@@H](C(=O)NCCCCCNC(=O)CS)[C@@H](c3cccc(OCCO)c3)N2C1=O : is its composite z-score no less than 0.2?
// result not fulfilled

---

TGT: Calmodulin-1 (Homo sapiens) (UniProt P0DP23)
EXPERIMENTAL_DETAILS: small molecules binding calmodulin-1 with EGTA – biochemical, small-molecule microarray, Cy5-labelled CALM1, profiling panel (AID 1111);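 further: labelled calmodulin applied in Tris saline Tween buffer holding calcium plus EGTA and DTT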
CONDITION_PARAMETERS: Cy5-CALM1 binding fluorescence, higher = more signal
Items are presented alongside their recorded composite z-score.
Write the number on its own, no unit after it.

Known composite z-score results, listed for orientation:
COC(=O)C(CC#Cc1ccc2c(c1)[C@]1(C(=O)N2)[C@H](C(=O)NC[C@H](O)c2ccccc2)[C@H]2C(=O)O[C@H](c3ccccc3)[C@H](c3ccccc3)N2[C@@H]1c1ccccc1OCCO)C(=O)OC : 0.413
C=CCOC(=O)[C@H]1[C@@H]2C(=O)O[C@@H](c3ccccc3)[C@@H](c3ccccc3)N2[C@@H](c2ccc(OCCOC(=O)[C@H]3C[C@H]4C(=O)N[C@@H](CC(C)C)C(=O)N4[C@H]3c3ccc(O)cc3)cc2)[C@]12C(=O)Nc1ccccc12 : 0.538
COCCOC(=O)N1C(=O)[C@@]2(c3cc(C#CCC(C(=O)OC)C(=O)OC)ccc31)[C@H](c1ccc(O)cc1)N1[C@H](c3ccccc3)[C@H](c3ccccc3)OC(=O)[C@H]1[C@@H]2C(=O)Nc1nc2ccccc2s1 : 1.38
CN(C)c1ccc(C(O)C2C=CC3C(=O)N(Cc4ccccc4)C(=O)C3N2n2cnnc2)cc1 (stereo unspecified) : -0.207
CO[C@H]1O[C@H](CO)[C@@H](OC(=O)Nc2ccccc2)[C@H](OC(=O)Nc2ccccc2)[C@H]1OC(=O)Nc1ccccc1 : 1.34

// query Output measured composite z-score for this item: COC(=O)[C@@]1(Cc2ccc(F)cc2)[C@H]2c3cc(C(=O)N4CCCC4)n(CCc4ccccn4)c3C[C@H]2CN1C(=O)c1ccccc1
// result 1.16

---

EXPERIMENTAL_DETAILS: growth of efflux-deficient E. coli DRC39 – strain DRC39, OD650, 24 h, E. coli filamentation inducers, primary screen (AID 1178);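 further: growth measured as culture turbidity by optical density at 650 nm; test concentration not given here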
CONDITION_PARAMETERS: E. coli DRC39 acrAB, higher = more signal, called active from +8 up or from −8 down
Items are presented alongside their recorded z-score.
Write the number on its own, no unit after it.

CN1C(=O)C2C(C3CC3)C=C3CN(Cc4cccc(Cl)c4)[C@@H]([C@@H](O)Cc4ccccc4)C3C2C1=O (stereo partly specified) : 0.942

// query Output measured z-score for this item: C=CCNC(=O)[C@H]1[C@@H]2C(=O)O[C@@H](c3ccccc3)[C@@H](c3ccccc3)N2[C@@H](c2ccc(OCCO)cc2)[C@]12C(=O)Nc1ccc(C#CC3(O)CCCCCC3)cc12
// result 0.352

// query Output measured z-score for this item: COCCOC(=O)N1C(=O)[C@@]2(c3cc(C#CC4(O)CCCCCC4)ccc31)[C@H](c1ccc(O)cc1)N1[C@H](c3ccccc3)[C@H](c3ccccc3)OC(=O)[C@H]1[C@@H]2C(=O)N1CCCCCCC1
// result -0.298

// query Output measured z-score for this item: NC(=O)NCC#Cc1ccc2c(c1)[C@]1(C(=O)N2)[C@H](c2ccc(OCCO)cc2)N2[C@H](c3ccccc3)[C@H](c3ccccc3)OC(=O)[C@H]2[C@@H]1C(=O)NC[C@H](O)c1ccccc1
// result 0.826

// query Output measured z-score for this item: CC(C)C(=C=CC[C@H](O)c1ccccc1OCCO)C[C@H](O)c1cc(Cl)cc(Cl)c1O
// result 0.215

// query Output measured z-score for this item: COC(=O)[C@@]1(Cc2ccc(F)cc2)[C@H]2c3cc(C(=O)N4CCCC4)n(Cc4cc(F)cc5c4OCOC5)c3C[C@H]2CN1C(=O)c1ccccc1
// result 0.462

All figures here come from PubChem BioAssay.
